I'd be grateful if you could share measured melting point for these entries.

Problem: So what does the record say about melting point for `CC(C)(C)NC(=S)Nc1cc(F)cc(Cl)c1` ?
Solution: 135 to 137 °C

Problem: So what does the record say about melting point for `CC(C)(C)c1cc(OCc2ccccc2C(=O)O)cc(C(C)(C)C)c1` ?
Solution: 173 to 174 °C

Problem: So what does the record say about melting point for `N#Cc1ccc(N(Cc2ccc(OS(N)(=O)=O)c(Cl)c2)n2cnnc2)cc1-c1ccccc1` ?
Solution: 201 to 204 °C

Problem: So what does the record say about melting point for `O=C1c2ccccc2-n2cncc2[C@@H]2CCCN12` ?
Solution: 211 to 212 °C

Problem: So what does the record say about melting point for `CSC(=N)N(c1ccccc1)c1ccccc1` ?
Solution: 104 to 106 °C

---

readout.kind: melting point

Problem: So what does the record say about melting point for COc1ccc(CN2c3ccc(Cl)cc3C=C(C(=O)O)C2C(F)(F)F)cc1 (stereo unspecified) ?
Solution: 196 to 197 °C

Problem: So what does the record say about melting point for `COc1cc(C=C2NC(=O)NC2=O)cc(OC)c1O` ?
Solution: 296 to 297 °C

Problem: So what does the record say about melting point for `Cc1nccn1CCCc1ccc(OCc2coc(/C=C/c3ccccc3)n2)cc1` ?
Solution: 93 to 94 °C

Problem: So what does the record say about melting point for `CCOC(=O)c1cc2cc(CCNS(=O)(=O)c3ccc(Cl)cc3)ccc2o1` ?
Solution: 123 to 125 °C

Problem: So what does the record say about melting point for CCCCCCCCCCCCCCCCCCNC(=O)SCC(CO)OC (stereo unspecified) ?
Solution: 62 to 63 °C

Problem: So what does the record say about melting point for COc1ccc(S(=O)(=O)C2(CCCCCCCCCC#Cc3ccc(Cl)cc3)SC(=O)NC2=O)cc1 (stereo unspecified) ?
Solution: 114 to 121 °C

Problem: So what does the record say about melting point for ClC(c1ccccc1)c1ccc(C2CCCCC2)cc1 (stereo unspecified) ?
Solution: 75 °C

Problem: So what does the record say about melting point for `O=C1c2c(Cl)cccc2-n2cnc(-c3nc(C4CCCC4)no3)c2[C@@H]2CCCN12` ?
Solution: 177 to 178 °C

Problem: So what does the record say about melting point for `CN(C)C=C1CCN(C(=O)c2ccc([N+](=O)[O-])cc2)c2ccccc2C1=O` ?
Solution: 180 to 183 °C

Problem: So what does the record say about melting point for CC(CCC(=O)C(C)(C)OO)C1CCC2C3CC=C4CC(O)CCC4(C)C3CCC12C (stereo unspecified) ?
Solution: 146 to 147 °C

Problem: So what does the record say about melting point for O=C1c2ccccc2C(=O)N1Cc1ccc(/C=C/C(c2cc(Cl)c(Cl)c(Cl)c2)C(F)(F)F)c2ccccc12 (stereo unspecified) ?
Solution: 158 to 160 °C

Problem: So what does the record say about melting point for `N#Cc1ccc(C=C2CCCC2)s1` ?
Solution: 98 to 100 °C

Problem: So what does the record say about melting point for `CCCCc1nc2ncccc2[nH]1` ?
Solution: 80 °C

Problem: So what does the record say about melting point for `c1cncc(-c2cncnc2)c1` ?
Solution: 101 to 103 °C

Problem: So what does the record say about melting point for CC1CCC(=NN)c2ncc(C(=O)O)c(=O)n21 (stereo unspecified) ?
Solution: 202 to 203 °C

Problem: So what does the record say about melting point for `N=C(NO)c1nc(-c2ccc(C(F)(F)F)cc2)cc(C(F)(F)F)n1` ?
Solution: 224 °C

Problem: So what does the record say about melting point for `N#CC(C(=O)c1ccc(Cl)cc1)=C1CCCN1Cc1ccc(Cl)nc1` ?
Solution: 142 to 144 °C

Problem: So what does the record say about melting point for COC(=O)C1=C(C)NC(C)=C(C(=O)OCCc2cc(C)[nH]c2C)C1c1cccc([N+](=O)[O-])c1 (stereo unspecified) ?
Solution: 156 to 160 °C

Problem: So what does the record say about melting point for CNC(=S)N1CCc2cc(S(=O)(=O)N3CC(c4ccccc4)NC3=O)ccc21 (stereo unspecified) ?
Solution: 217 to 219 °C

Problem: So what does the record say about melting point for NCC1(C(=O)O)CC(c2ccccc2)Cc2c(O)cccc21 (stereo unspecified) ?
Solution: 110 to 112 °C

Problem: So what does the record say about melting point for `CC(=O)c1c(C)nc(C)n1-c1cc(C)c2[nH]c(=O)ccc2c1` ?
Solution: 240 to 242 °C
